Assay: qHTS Assay for Lipid Storage Modulators: 3T3L1 Assay against Probe and Analogs
Settings: 3T3-L1 lipid droplets, BODIPY imaging, oleic acid, 18-24 h; series mostly up to 46.1 µM
Description: Storing lipids as a reservoir for energy or the anabolism of elementary metabolites is a common feature of probably all cells and is conserved from bacteria to humans. The universal cellular lipid storage organelle is the so-called lipid storage droplet (LD). Although ubiquitous, LDs share a simple structure composed of a hydrophobic core that harbors the storage lipids, which is shielded by a droplet-specific phospholipid monolayer to which proteins are attached. […]
Inconclusive results are not listed. The source made the active and inactive calls. Calls come from the whole dose curve; as a rule, active = well fitted inhibition curve with a large enough effect; inconclusive = small, poorly fitted or top-dose-only effect; inactive = no such curve, though single readings can be large or run the other way.
Property: Potency

Known results for molecules:
Inquiry: So what does the record say about Potency for "CCOC(=O)C1CCN(C(=O)C2(NC(=O)Nc3ccccc3Cl)CC2)CC1" ?
Reply text: inactive

Inquiry: Requested read-out: Potency. Entry: "CCOc1ccc(CCNC(=O)c2cc3sccc3n2CCN2CCN(C)CC2)cc1OCC"
Reply text: 1320 nM (active)

Inquiry: For "O=C(N[C@H]1CCCc2c1cnn2-c1ccc(F)cc1F)c1ccccn1" , what is its reported Potency?
Reply text: inactive

Inquiry: Item under review: O=C(Cc1ccccc1)NC1CCCc2c1cnn2-c1ccc(F)cc1F (stereo unspecified) . Reported Potency?
Reply text: inactive

Inquiry: What does the data say about its Potency? Entry: "CCOC(=O)C1CCN(C(=O)C(C)(C)NC(=O)Nc2ccc(N)cc2)CC1"
Reply text: inactive

Inquiry: Please report the recorded Potency for "CCOc1ccc(CCNC(=O)C2=C(C)OCCO2)cc1OCC" .
Reply text: inactive

Inquiry: State the recorded Potency for this entry: "CCOc1ccc(CCNC(=O)c2cc3sccc3n2Cc2ccccc2)c(F)c1OCC"
Reply text: 526 nM (active)

Inquiry: Would you mind telling me what Potency value was observed for "CCOc1ccc(CCNC(=O)c2cc3sccc3n2C(C)C)cc1OCC" ?
Reply text: 29.6 nM (active)

Inquiry: Tell me the measured Potency of O=C(NC1CCCc2c1cnn2-c1ccc(F)cc1F)c1cnccn1 (stereo unspecified) , please.
Reply text: inactive

Inquiry: Request the reported Potency associated with CN(C)CC(=O)NC1CCCc2c1cnn2-c1ccc(F)cc1F (stereo unspecified)
Reply text: inactive

Below: the item to evaluate.
Inquiry: Field request: Potency | item: "CCOc1ccc(CCNC(=O)c2ccc3[nH]ccc3c2)cc1OCC"
Reply text: inactive

Recorded values, source PubChem BioAssay AID652180.
